Can you tell me melting point for the items I'm about to list?
Where a name gives a salt, the structure may show the parent alone.

Which measured melting point value corresponds to NC(=O)c1ccc(F)c2c1OCC(NCCCc1c[nH]c3ccc(F)cc13)C2 (centres unmarked) (as salt: hydrochloride) ? 124 °C (dec.)

Also, CCCN(CCc1c[nH]c2ccc(F)cc12)C1CCc2cccc(OC)c2C1 (centres unmarked) (as salt: hydrochloride) please. 105 °C (dec.)

Proceed to O=C(Nc1ccccc1)c1ccc(F)c2c1CC(N(CCCc1c[nH]c3ccc(F)cc13)C1CCC1)CO2 (centres unmarked) (as salt: hydrochloride) 136 °C (dec.)

Another: COc1cccc2c(CCN(CC3CC3)C3COc4c(F)ccc(C(N)=O)c4C3)coc12 (centres unmarked) (as salt: hydrochloride) 130 to 138 °C (dec.)

Also COc1cccc2c1CC(N(CCCc1c[nH]c3ccccc13)C1CCC1)CO2 (centres unmarked) (as salt: hydrochloride) , if possible. 113 to 117 °C

Request: CCCN(CCCc1coc2ccccc12)C1COc2c(F)ccc(C(N)=O)c2C1 (centres unmarked) (as salt: hydrochloride) 114 to 118 °C (dec.)

Another molecule to look at: COc1cccc2c(CCCCN(C3CCC3)C3COc4c(F)ccc(C(N)=O)c4C3)coc12 (centres unmarked) (as salt: hydrochloride) 122 to 127 °C (dec.)

One more molecule: CCN(CCCc1c[nH]c2ccc(Cl)cc12)C1COc2c(F)ccc(C(N)=O)c2C1 (centres unmarked) (as salt: hydrochloride) 149 to 156 °C (dec.)

Record: NC(=O)c1ccc(F)c2c1CC(N(CCCc1c[nH]c3ccc(F)cc13)CC1CC1)CO2 (single isomer, unassigned; (-)) (as salt: hydrochloride) [Compound 5a] 123 °C (dec.)

Now consider COc1cccc2c1CC(N(CCCc1c[nH]c3ccc(C#N)cc13)C1CCC1)CO2 (centres unmarked) (as salt: hydrochloride) . 133 to 137 °C

Please do the same for CCN(CCCCc1c[nH]c2ccc(F)cc12)C1COc2c(F)ccc(C(N)=O)c2C1 (centres unmarked) (as salt: hydrochloride) as well. 110 °C (dec.)

Same read-out for CCCCNC(=O)c1ccc(F)c2c1CC(N(CCCc1c[nH]c3ccc(F)cc13)C1CCC1)CO2 (centres unmarked) (as salt: hydrochloride) ? 106 °C (dec.)

Try this molecule too: COc1cccc2c1CC(N(CCCc1c[nH]c3ccc(F)cc13)C(C)C)CO2 (centres unmarked) (as salt: hydrochloride) 105 °C (dec.)

Now the molecule CN(C)C(=O)c1ccc(F)c2c1CC(N(CCCc1c[nH]c3ccc(F)cc13)C1CCC1)CO2 (centres unmarked) (as salt: hydrochloride) 126 °C (dec.)

----------
# Assayed System: 5-HT1A receptor (Homo sapiens)
# Sequence (P08908 1-422): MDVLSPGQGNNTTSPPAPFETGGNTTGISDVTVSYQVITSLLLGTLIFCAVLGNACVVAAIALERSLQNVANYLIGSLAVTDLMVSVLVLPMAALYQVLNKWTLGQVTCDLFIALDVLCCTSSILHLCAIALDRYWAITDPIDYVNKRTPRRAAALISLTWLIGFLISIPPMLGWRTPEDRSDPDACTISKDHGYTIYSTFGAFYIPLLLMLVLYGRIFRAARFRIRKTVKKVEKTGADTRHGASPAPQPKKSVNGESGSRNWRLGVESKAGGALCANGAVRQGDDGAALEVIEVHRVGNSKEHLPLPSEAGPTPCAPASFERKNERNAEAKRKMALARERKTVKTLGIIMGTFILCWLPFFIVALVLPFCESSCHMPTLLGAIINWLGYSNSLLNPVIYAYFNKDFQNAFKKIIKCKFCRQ
# Measurement Notes: 5-HT1A receptor affinity: displacement of [3H] 8-OH-DPAT
# Type: binding
# Set-up: expressed in transfected cells
# Settings: displacement of [3H] 8-OH-DPAT; CHO cells stably transfected with human 5-HT1A receptors; read-out: 5-HT1A Receptor Affinity Ki
Measurement Type: pKi
pKi here: minus log base 10 of the concentration, concentration in moles per litre.

Lookup: pKi / 5-HT1A receptor (Homo sapiens) / CCN(CCCc1c[nH]c2ccc(F)cc12)C1COc2c(F)ccc(C(=O)NC)c2C1 (stereo not shown) [Compound 89] 7.67

Moving on to the next compound: COc1cccc2c(CCCN(CC3CC3)C3COc4c(F)ccc(C(N)=O)c4C3)coc12 (stereo not shown) [Compound 165] 8.97

Also need CCCN(CCCc1csc2ccc(F)cc12)C1COc2cccc(OC)c2C1 (stereo not shown) [Compound 19] , thanks. 7.79

Next compound up: CCN(CCCCn1ccc2ccc(F)cc21)C1COc2c(F)ccc(C(N)=O)c2C1 (stereo not shown) [Compound 193] 7.67

Same lookup for NC(=O)c1ccc(F)c2c1CC(NCCCc1c[nH]c3ccc(F)cc13)CO2 (stereo not shown) [Compound 1] , please. 6.67

Let us now turn to CCCN(CCCCc1coc2c(OC)cccc12)[C@H]1COc2c(F)ccc(C(N)=O)c2C1 [Compound 172] 6.30

Field entry: NC(=O)c1ccc(F)c2c1CC(N(CCc1c[nH]c3ccc(F)cc13)CC1CC1)CO2 (stereo not shown) [Compound 78] 8.18
